testedSystem: hERG channel (Homo sapiens, UniProt Q12809)
Construct: expressed in transfected cells; host or cells: CHO (Chinese hamster ovary), CHOhERG
Sequence (Q12809 whole entry): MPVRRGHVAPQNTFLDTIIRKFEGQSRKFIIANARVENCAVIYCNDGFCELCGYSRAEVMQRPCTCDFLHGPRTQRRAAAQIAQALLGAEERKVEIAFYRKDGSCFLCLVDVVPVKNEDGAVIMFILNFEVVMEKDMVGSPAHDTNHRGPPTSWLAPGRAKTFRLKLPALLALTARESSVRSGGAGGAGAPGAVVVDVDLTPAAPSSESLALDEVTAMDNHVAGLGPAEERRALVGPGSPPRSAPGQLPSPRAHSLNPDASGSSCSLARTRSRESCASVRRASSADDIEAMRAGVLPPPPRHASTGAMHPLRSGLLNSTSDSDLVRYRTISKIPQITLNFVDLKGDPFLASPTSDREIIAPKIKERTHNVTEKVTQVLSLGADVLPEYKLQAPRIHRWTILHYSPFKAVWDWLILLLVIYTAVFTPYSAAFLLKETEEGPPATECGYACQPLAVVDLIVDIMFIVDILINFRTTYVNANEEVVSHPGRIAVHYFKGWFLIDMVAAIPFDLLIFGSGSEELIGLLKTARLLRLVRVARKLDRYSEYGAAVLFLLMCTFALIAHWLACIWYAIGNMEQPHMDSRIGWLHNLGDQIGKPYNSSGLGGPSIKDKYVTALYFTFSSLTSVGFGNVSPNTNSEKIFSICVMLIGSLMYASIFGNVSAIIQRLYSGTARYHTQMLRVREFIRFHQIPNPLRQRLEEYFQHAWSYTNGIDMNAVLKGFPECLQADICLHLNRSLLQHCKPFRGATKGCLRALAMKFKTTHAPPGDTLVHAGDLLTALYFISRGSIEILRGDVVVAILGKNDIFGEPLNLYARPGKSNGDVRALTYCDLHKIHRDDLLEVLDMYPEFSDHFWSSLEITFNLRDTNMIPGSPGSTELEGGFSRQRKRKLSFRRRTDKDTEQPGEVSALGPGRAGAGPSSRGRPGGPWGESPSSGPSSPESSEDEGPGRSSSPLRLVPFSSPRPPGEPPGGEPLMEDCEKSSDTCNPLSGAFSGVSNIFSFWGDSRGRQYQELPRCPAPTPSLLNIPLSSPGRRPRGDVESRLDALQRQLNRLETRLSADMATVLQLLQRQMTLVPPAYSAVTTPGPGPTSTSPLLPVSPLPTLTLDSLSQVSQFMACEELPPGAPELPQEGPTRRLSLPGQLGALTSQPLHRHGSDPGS
protocolText: hERG channel inhibition assay (patch-clamp, CHOhERG cells)
Format: cell-based
measurementSetup: safety ratio
outcomeMeasure: hERG IC20/TLR9 IC50

{"compound": "[2H]c1ccc2c(N3C[C@@H]4CN(c5ccc(CCN6C[C@H](OC)[C@@H](N)C6)cn5)CCN4[C@H](C)C3)ccc(C#N)c2n1 [Example 109]", "result": ">90"}
{"compound": "[2H]c1ccc2c(N3C[C@@H]4CN(Cc5ccc(N[C@H]6CNC[C@H]6F)nc5C)CCN4[C@H](C)C3)ccc(C#N)c2n1 [Example 82]", "result": ">243"}

Req: Please look up its hERG IC20/TLR9 IC50: [2H]c1ccc2c(N3C[C@@H]4CN(c5ccc(N6C[C@@H](N)[C@H](OC)C6)nc5)CCN4[C@@H](C)C3)ccc(C#N)c2n1 [Example 115]
Resp: >71
